The reader will find AC50 measurements below, all made with Histamine H3 receptor (Homo sapiens, UniProt Q9Y5N1).
Sequence (Q9Y5N1 whole entry): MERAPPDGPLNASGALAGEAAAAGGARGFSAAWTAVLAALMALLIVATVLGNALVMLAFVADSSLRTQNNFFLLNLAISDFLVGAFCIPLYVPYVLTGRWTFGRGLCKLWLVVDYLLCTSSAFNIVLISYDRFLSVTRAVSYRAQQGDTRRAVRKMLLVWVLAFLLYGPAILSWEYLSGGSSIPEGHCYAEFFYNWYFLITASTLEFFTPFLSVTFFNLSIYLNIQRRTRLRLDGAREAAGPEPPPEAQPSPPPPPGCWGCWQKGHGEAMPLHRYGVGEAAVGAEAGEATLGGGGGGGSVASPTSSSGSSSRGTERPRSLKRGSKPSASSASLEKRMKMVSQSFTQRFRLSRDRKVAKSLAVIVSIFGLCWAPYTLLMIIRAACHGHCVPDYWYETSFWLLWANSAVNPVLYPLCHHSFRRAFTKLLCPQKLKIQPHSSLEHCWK

// below: answered compounds
compound | meas value
CC1(C)C(C=C(Cl)Cl)C1C(=O)OCc1cccc(Oc2ccccc2)c1 (stereo unspecified) | > 10 µM
CC(=N)N1CC[C@H](SC2=C(C(=O)O)N3C(=O)[C@H]([C@@H](C)O)[C@H]3C2)C1 | > 300 µM
COC(=O)N[C@@H](C)CNc1nccc(-c2cn(C(C)C)nc2-c2cc(Cl)cc(NS(C)(=O)=O)c2F)n1 | > 30 µM

Query block: Recall the recorded AC50 for Cc1ccc2c(-c3ccccc3)nc(=O)n(C(C)C)c2c1 with Histamine H3 receptor (Homo sapiens, UniProt Q9Y5N1) and state it.
Result block: > 30 µM

Query block: Recall the recorded AC50 for Clc1cccc(Cl)c1N=C1NCCN1 with Histamine H3 receptor (Homo sapiens, UniProt Q9Y5N1) and state it.
Result block: > 10 µM

Query block: Recall the recorded AC50 for NS(=O)(=O)c1cc(C(=O)O)cc(N2CCCC2)c1Oc1ccccc1 [PIRETANIDE] with Histamine H3 receptor (Homo sapiens, UniProt Q9Y5N1) and state it.
Result block: > 30 µM

* * *

// values below are reported AC50
Target: UniProt:P06401
Sequence (P06401 whole entry): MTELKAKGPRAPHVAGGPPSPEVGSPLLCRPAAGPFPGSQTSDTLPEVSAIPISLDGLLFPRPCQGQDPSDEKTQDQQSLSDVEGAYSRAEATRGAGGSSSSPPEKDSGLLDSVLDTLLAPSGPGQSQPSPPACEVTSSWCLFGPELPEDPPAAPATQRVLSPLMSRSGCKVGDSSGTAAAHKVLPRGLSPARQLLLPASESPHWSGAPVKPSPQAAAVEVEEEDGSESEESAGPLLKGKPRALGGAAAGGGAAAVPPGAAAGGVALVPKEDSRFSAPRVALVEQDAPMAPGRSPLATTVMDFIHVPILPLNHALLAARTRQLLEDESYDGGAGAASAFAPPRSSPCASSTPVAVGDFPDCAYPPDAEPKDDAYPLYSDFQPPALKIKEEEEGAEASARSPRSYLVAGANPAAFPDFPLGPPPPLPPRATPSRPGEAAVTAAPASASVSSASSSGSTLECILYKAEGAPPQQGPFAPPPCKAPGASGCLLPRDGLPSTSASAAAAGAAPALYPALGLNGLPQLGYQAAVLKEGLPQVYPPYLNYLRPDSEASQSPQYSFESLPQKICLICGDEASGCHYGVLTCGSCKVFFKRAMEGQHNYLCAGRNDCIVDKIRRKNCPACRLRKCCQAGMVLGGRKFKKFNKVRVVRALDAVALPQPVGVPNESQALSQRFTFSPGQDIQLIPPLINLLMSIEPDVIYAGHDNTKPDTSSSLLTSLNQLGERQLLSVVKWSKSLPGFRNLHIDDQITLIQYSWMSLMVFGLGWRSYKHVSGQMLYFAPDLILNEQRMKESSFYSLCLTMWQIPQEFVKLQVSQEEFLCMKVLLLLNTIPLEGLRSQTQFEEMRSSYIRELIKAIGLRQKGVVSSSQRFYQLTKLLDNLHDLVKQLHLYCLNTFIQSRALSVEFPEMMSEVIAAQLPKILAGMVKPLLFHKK
Format: functional

// below: answered compounds
compound | system tested | AC50
CC(C)=CCOc1ccc(/C=C/C(=O)c2ccc(OCC=C(C)C)cc2OCC(=O)O)cc1 | UniProt:P06401 | 9.4 µM
NS(=O)(=O)c1cc(C(=O)O)cc(N2CCCC2)c1Oc1ccccc1 [PIRETANIDE] | UniProt:P06401 | > 30 µM
COc1cc(OC)c(C(=O)CCCN2CCCC2)c(OC)c1 | UniProt:P06401 | > 30 µM
CC(C)(C)NC[C@H](O)COc1nsnc1N1CCOCC1 | UniProt:P06401 | > 30 µM
Cc1ccc(NC(=O)C2(c3ccc4c(c3)OC(F)(F)O4)CC2)nc1-c1cccc(C(=O)O)c1 | UniProt:P06401 | > 30 µM

Query block: Data request, read-out AC50, for O=C(CCCN1CCC(n2c(O)nc3ccccc32)CC1)c1ccc(F)cc1
Result block: 29 µM

Query block: Data request, read-out AC50, for CCOC(=O)Nc1ccc2c(c1)N(C(=O)CCN1CCOCC1)c1ccccc1S2
Result block: > 30 µM

* * *

The reader will find AC50 measurements below, all made with Sodium-dependent dopamine transporter (Homo sapiens).
Sequence (Q01959 whole entry): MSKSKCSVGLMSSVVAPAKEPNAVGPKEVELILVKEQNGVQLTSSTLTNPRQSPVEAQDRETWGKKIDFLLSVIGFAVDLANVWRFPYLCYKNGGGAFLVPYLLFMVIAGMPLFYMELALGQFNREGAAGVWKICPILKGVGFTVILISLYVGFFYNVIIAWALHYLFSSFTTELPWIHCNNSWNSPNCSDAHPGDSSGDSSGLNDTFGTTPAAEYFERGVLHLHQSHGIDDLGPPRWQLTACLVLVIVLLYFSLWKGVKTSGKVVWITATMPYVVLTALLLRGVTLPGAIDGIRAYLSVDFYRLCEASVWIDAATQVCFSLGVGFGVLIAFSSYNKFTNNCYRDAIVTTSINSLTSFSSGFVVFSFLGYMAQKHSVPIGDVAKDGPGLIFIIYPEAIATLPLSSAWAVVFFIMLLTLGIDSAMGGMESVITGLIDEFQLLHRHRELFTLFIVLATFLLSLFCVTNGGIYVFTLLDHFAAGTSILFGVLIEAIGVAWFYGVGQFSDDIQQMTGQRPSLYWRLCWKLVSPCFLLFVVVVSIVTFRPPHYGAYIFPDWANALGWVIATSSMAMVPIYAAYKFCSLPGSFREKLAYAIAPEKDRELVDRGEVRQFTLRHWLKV

// below: answered compounds
compound | AC50
O=c1oc2ccccc2c(O)c1Cc1c(O)c2ccccc2oc1=O | > 10 µM
CCSc1ccc2c(c1)N(CCCN1CCN(C)CC1)c1ccccc1S2 | 15 µM
COc1ccnc(C[S+]([O-])c2nc3ccc(OC(F)F)cc3[nH]2)c1OC (configuration not stated) | > 10 µM
Nc1ccc(C(=O)O)c(O)c1 | > 30 µM
CC(C)OC(=O)C(C(=O)OC(C)C)=C1SC=CS1 [MALOTILATE] | > 30 µM

Query block: Recall the recorded AC50 for CCCOC(C(=O)OC1CCN(C)CC1)(c1ccccc1)c1ccccc1 with Sodium-dependent dopamine transporter (Homo sapiens) and state it.
Result block: 16 µM

Query block: Recall the recorded AC50 for CCCCNc1ccc(C(=O)OCCN(C)C)cc1 with Sodium-dependent dopamine transporter (Homo sapiens) and state it.
Result block: > 10 µM

Query block: Recall the recorded AC50 for Nc1nc(F)nc2c1ncn2[C@@H]1O[C@H](COP(=O)(O)O)[C@@H](O)[C@@H]1O [FLUDARABINE PHOSPHATE] with Sodium-dependent dopamine transporter (Homo sapiens) and state it.
Result block: > 30 µM

* * *

Molecular target: Alpha-2A adrenergic receptor (Homo sapiens, UniProt P08913); note: assay procedure not described here
Sequence (P08913 whole entry): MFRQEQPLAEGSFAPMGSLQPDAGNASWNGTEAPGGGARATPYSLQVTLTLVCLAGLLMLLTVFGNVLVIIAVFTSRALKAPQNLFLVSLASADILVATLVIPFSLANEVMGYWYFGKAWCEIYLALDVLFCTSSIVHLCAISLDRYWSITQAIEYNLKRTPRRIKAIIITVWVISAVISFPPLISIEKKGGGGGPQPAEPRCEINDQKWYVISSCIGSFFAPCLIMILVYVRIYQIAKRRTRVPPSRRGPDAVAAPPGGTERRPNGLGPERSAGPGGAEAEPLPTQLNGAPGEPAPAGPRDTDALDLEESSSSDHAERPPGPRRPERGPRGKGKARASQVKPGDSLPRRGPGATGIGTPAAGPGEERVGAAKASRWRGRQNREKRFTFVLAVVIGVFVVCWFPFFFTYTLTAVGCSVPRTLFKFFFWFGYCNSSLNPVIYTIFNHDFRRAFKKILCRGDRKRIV
Format: functional, cell-based
readout: AC50

compound | system tested | AC50
CO/N=C(\C(=O)N[C@@H]1C(=O)N2C(C(=O)O)=C(COC(N)=O)CS[C@H]12)c1ccco1 | Alpha-2A adrenergic receptor (Homo sapiens, UniProt P08913) | > 30 µM
NS(=O)(=O)c1cc(C(=O)O)cc(N2CCCC2)c1Oc1ccccc1 [PIRETANIDE] | Alpha-2A adrenergic receptor (Homo sapiens, UniProt P08913) | > 30 µM
Cc1cnc(NC(=O)C2=C(O)c3ccccc3S(=O)(=O)N2C)s1 | Alpha-2A adrenergic receptor (Homo sapiens, UniProt P08913) | > 10 µM
CCCCNc1ccc(C(=O)OCCN(C)C)cc1 | Alpha-2A adrenergic receptor (Homo sapiens, UniProt P08913) | > 10 µM
CC#CCn1c(N2CCC[C@@H](N)C2)nc2c1c(=O)n(Cc1nc(C)c3ccccc3n1)c(=O)n2C | Alpha-2A adrenergic receptor (Homo sapiens, UniProt P08913) | > 10 µM
CN1CCN(c2c(F)cc3c(=O)c(C(=O)O)cn4c3c2SCC4)CC1 | Alpha-2A adrenergic receptor (Homo sapiens, UniProt P08913) | > 30 µM
COC1=C(OC)C(=O)C(CCCCCCCCCCO)=C(C)C1=O | Alpha-2A adrenergic receptor (Homo sapiens, UniProt P08913) | > 10 µM
O=C(Nc1c(Cl)cncc1Cl)c1ccc(OC(F)F)c(OCC2CC2)c1 | Alpha-2A adrenergic receptor (Homo sapiens, UniProt P08913) | > 30 µM
CC[C@H]1OC(=O)[C@H](C)[C@@H](O[C@H]2C[C@@](C)(OC)[C@@H](O)[C@H](C)O2)[C@H](C)[C@@H](O[C@@H]2O[C@H](C)C[C@H](N(C)C)[C@H]2O)[C@](C)(OC)C[C@@H](C)C(=O)[C@H](C)[C@@H](O)[C@]1(C)O | Alpha-2A adrenergic receptor (Homo sapiens, UniProt P08913) | > 30 µM
CC(=N)N1CC[C@H](SC2=C(C(=O)O)N3C(=O)[C@H]([C@@H](C)O)[C@H]3C2)C1 | Alpha-2A adrenergic receptor (Homo sapiens, UniProt P08913) | > 300 µM

Now let's try a different one.
Query block: Recall the recorded AC50 for c1ccc2c(CC3=NCCN3)cccc2c1 with Alpha-2A adrenergic receptor (Homo sapiens, UniProt P08913) and state it.
Result block: 0.14 µM

* * *

Target: Muscarinic acetylcholine receptor M2 (Homo sapiens, UniProt P08172); note: assay procedure not described here
Sequence (P08172 whole entry): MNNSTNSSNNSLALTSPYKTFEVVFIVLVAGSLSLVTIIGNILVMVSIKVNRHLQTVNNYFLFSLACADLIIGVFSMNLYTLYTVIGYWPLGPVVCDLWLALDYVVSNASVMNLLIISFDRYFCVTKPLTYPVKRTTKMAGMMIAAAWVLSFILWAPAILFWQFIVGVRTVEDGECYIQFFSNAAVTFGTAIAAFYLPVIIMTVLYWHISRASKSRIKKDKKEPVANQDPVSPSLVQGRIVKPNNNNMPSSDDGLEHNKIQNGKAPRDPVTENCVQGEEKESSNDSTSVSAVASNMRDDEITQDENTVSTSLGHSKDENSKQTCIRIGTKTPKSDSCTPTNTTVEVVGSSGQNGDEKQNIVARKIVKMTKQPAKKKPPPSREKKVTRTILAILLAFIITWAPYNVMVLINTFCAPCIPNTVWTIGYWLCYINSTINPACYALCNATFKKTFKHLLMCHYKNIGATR
Assay type: functional, cell-based
// values below are reported AC50

Query block: Data request, read-out AC50, for CC(/C=C1\SC(=S)N(CC(=O)O)C1=O)=C\c1ccccc1
Result block: > 30 µM

* * *

Target: Growth hormone secretagogue receptor type 1 (Homo sapiens, UniProt Q92847); note: assay procedure not described here
Sequence (Q92847 whole entry): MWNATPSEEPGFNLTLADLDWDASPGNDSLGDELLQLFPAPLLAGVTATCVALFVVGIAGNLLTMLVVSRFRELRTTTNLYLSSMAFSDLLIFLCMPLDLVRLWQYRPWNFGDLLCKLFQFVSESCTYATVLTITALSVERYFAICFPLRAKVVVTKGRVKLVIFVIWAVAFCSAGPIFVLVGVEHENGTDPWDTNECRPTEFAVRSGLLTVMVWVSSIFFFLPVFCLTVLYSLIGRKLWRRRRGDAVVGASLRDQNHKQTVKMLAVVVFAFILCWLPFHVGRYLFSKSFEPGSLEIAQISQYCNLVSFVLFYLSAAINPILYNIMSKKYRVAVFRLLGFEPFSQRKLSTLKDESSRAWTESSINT
readout: AC50

// below: answered molecules
molecule | system tested | readout | meas value
C=CC(N)CCC(=O)O (stereo not drawn) [VIGABATRIN] | Growth hormone secretagogue receptor type 1 (Homo sapiens, UniProt Q92847) | AC50 | > 10 µM
Cc1cc2nc3c(=O)[nH]c(=O)nc-3n(C[C@H](O)[C@H](O)[C@H](O)COP(=O)(O)O)c2cc1C [RIBOFLAVIN 5'-PHOSPHATE] | Growth hormone secretagogue receptor type 1 (Homo sapiens, UniProt Q92847) | AC50 | > 30 µM
C#C[C@]1(O)CC[C@H]2[C@@H]3CCC4=CC(=O)CCC4=C3C=C[C@@]21CC [GESTRINONE] | Growth hormone secretagogue receptor type 1 (Homo sapiens, UniProt Q92847) | AC50 | > 30 µM
CC(C)c1cc2c(cc1S(=O)(=O)O)[C@@]1(C)CCC[C@@](C)(C(=O)O)[C@@H]1CC2 [ECABET] | Growth hormone secretagogue receptor type 1 (Homo sapiens, UniProt Q92847) | AC50 | > 30 µM
CN1C[C@H](C(=O)N[C@]2(C)O[C@@]3(O)[C@@H]4CCCN4C(=O)[C@H](Cc4ccccc4)N3C2=O)C[C@@H]2c3cccc4[nH]cc(c34)C[C@H]21 [DIHYDROERGOTAMINE] | Growth hormone secretagogue receptor type 1 (Homo sapiens, UniProt Q92847) | AC50 | 4.39 µM
N#Cc1ccccc1-c1cc(-c2ccccn2)cn(-c2ccccc2)c1=O | Growth hormone secretagogue receptor type 1 (Homo sapiens, UniProt Q92847) | AC50 | > 30 µM
C[C@]1(COc2ccc(N3CCC(Oc4ccc(OC(F)(F)F)cc4)CC3)cc2)Cn2cc([N+](=O)[O-])nc2O1 | Growth hormone secretagogue receptor type 1 (Homo sapiens, UniProt Q92847) | AC50 | > 30 µM

Now let's try a different one.
Query block: Recall the recorded AC50 for CC[C@H]1OC(=O)[C@H](C)[C@@H](O[C@H]2C[C@@](C)(OC)[C@@H](O)[C@H](C)O2)[C@H](C)[C@@H](O[C@@H]2O[C@H](C)C[C@H](N(C)C)[C@H]2O)[C@](C)(O)C[C@@H](C)/C(=N\OCOCCOC)[C@H](C)[C@@H](O)[C@]1(C)O [ROXITHROMYCIN] with Growth hormone secretagogue receptor type 1 (Homo sapiens, UniProt Q92847) and state it.
Result block: > 30 µM
